Target: cloned human 5HT1A receptors (Homo sapiens, UniProt P08908)
Construct: expressed in transfected cells
Sequence (P08908 whole entry): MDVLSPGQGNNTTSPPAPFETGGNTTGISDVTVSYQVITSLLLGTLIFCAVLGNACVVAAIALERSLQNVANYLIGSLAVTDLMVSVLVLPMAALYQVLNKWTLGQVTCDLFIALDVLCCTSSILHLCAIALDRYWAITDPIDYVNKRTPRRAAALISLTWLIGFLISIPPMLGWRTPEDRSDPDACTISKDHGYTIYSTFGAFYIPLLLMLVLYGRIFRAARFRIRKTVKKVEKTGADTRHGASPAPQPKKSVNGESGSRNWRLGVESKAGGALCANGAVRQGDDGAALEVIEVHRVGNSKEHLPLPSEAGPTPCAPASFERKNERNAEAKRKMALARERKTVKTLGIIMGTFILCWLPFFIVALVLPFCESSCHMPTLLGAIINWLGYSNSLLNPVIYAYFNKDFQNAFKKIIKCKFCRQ
Experiment: 35S-GTPγS binding assay, 5HT1A antagonist activity
Format: biochemical
Conditions: increase in binding (agonist), read-out: 5HT1A Function EC50
readoutKind: EC50 (nM)

a. CCc1ccc2c3c(ccc2n1)OC[C@H](CN1CCN(c2ccc4cc(C#N)ccc4n2)CC1)O3
b. Cc1nc2ccc3c(c2o1)O[C@@H](CN1CCN(c2ccc4cc(C#N)ccc4n2)CC1)CO3
// pick min by EC50: a , b Identify your selection by its label.
b
(b: 700 nM, a: 1140 nM)

====

Target: serotonin transporter (Rattus norvegicus, UniProt P31652)
Sequence (P31652 whole entry): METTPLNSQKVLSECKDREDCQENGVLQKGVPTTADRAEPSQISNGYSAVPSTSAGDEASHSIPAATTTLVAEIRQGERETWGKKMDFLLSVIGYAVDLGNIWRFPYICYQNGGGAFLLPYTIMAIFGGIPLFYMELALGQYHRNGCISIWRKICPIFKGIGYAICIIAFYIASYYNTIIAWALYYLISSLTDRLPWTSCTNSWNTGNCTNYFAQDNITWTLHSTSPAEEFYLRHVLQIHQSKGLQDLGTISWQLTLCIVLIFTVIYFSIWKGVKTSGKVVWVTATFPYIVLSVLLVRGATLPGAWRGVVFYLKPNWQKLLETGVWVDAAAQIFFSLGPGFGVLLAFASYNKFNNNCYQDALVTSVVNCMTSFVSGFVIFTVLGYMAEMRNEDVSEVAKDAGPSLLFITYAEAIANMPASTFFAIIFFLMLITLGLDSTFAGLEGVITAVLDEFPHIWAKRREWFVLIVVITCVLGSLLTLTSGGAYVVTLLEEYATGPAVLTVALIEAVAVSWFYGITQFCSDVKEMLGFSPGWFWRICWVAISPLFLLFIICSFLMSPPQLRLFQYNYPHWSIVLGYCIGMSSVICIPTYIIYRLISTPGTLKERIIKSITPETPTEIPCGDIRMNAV
readoutKind: Ki (µM)

# count of solved cases: 2
compoundStructureString | readoutKind | numericValue
Cc1ccc2c3c(ccc2n1)OC[C@H](CN1CCN(c2ccc4ccccc4n2)CC1)O3 | Ki | 0.048
Cc1ccc2c3c(ccc2n1)OC[C@H](CN1CCN(c2ccc4cc(C#N)ccc4n2)C[C@H]1C)O3 | Ki | 0.688

A. Cc1ccc2c3c(ccc2n1)OC[C@H](CN1CCN(c2ccc4ccccc4n2)C[C@H]1C)O3
B. COc1ccc2nc(N3CCCN(C[C@H]4COc5ccc6nc(C)ccc6c5O4)CC3)ccc2c1
C. Cc1ccc2c3c(ccc2n1)OC[C@H](CN1CCN(c2ccc4cc(C#N)ccc4n2)CC1)O3
Ascending by Ki, please. Lab note: record answer as labels in requested order.
B, C, A
(B: 0.0073 µM, C: 0.0135 µM, A: 0.0328 µM)
